Readings of EC50 for the listed compounds
- target system: D(4) dopamine receptor (Homo sapiens, UniProt P21917)
- Sequence (P21917 whole entry): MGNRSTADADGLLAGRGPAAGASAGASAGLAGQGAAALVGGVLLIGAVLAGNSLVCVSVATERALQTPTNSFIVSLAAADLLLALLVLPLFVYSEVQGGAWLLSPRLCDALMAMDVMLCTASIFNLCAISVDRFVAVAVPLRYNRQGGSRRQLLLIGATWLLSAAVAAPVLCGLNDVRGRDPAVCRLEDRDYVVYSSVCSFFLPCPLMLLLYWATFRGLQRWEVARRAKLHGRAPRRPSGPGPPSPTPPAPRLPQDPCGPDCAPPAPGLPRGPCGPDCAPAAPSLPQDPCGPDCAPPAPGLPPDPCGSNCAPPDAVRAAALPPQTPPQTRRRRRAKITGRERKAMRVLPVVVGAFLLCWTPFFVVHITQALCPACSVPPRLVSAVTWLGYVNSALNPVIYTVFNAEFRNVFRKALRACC
- assay: Agonist activity at PKA-tagged human dopamine D4 receptor transfected in HEK293T cells expressing (EA)-beta-arrestin and GRK2 assessed as beta-arrestin recruitment incubated for 3 hrs by chemiluminescence based PathHunter assay
- Type: functional, cell-based

[
  {
    "query smiles": "COc1ccccc1N1CCN(CCCNC(=O)NN(Cc2ccc(F)cc2)c2ccccc2)CC1",
    "EC50 / nM": 42
  },
  {
    "query smiles": "COc1ccccc1N1CCN(CCCNC(=O)NN(Cc2ccccc2)c2ccc(F)cc2)CC1",
    "EC50 / nM": 410
  }
]
